ASSAY TARGET: UniProt:Q9NYK1
TEST PROTOCOL: Antagonist activity at human TLR7 expressed in HEK-blue-HTLR7 cells assessed as inhibition of CL264-induced NFkappaB activation measured after 24 hrs by secreted alkaline phosphatase reporter assay
Type: cell-based
MEASUREMENT LABEL: IC50 (µM)

Reported IC50 for COc1ccc(CNc2nc(N3CCNCC3)c3cc(OC)c(OCc4ccccc4)cc3n2)cc1 was 27.8

I: COc1ccc(CNc2nc(N3CCN(C4CCCC4)CC3)c3cc(OC)c(OCCCN4CCCC4)cc3n2)cc1
II: COc1ccc(CNc2nc(N3CCN(C)CC3)c3cc(OC)c(OCc4ccccc4)cc3n2)cc1
// compare: I vs II , metric IC50, want the smaller Lab log: write the label of the selected item as the result.
I
(I: 1.83 µM, II: 19.9 µM)

====

ASSAY TARGET: UniProt Q9NYK1
TEST PROTOCOL: Antagonist activity at TLR7 (unknown origin)
MEASUREMENT LABEL: IC50 (µM)

For record CCCSc1nc2c(O)nnc(O)c2n1Cc1ccccc1 the listed IC50 is 110

a: CC(C)Cn1cnc2c(=O)oc3ccccc3c21
b: CCSc1nc2c(N)ncnc2[nH]1
Could you tell me which of these two has the smaller IC50 figure? First: a Second: b Please indicate the selected item by its label.
a

====

ASSAY TARGET: Toll-like receptor 7 (Homo sapiens, UniProt Q9NYK1)
Sequence (Q9NYK1 whole entry): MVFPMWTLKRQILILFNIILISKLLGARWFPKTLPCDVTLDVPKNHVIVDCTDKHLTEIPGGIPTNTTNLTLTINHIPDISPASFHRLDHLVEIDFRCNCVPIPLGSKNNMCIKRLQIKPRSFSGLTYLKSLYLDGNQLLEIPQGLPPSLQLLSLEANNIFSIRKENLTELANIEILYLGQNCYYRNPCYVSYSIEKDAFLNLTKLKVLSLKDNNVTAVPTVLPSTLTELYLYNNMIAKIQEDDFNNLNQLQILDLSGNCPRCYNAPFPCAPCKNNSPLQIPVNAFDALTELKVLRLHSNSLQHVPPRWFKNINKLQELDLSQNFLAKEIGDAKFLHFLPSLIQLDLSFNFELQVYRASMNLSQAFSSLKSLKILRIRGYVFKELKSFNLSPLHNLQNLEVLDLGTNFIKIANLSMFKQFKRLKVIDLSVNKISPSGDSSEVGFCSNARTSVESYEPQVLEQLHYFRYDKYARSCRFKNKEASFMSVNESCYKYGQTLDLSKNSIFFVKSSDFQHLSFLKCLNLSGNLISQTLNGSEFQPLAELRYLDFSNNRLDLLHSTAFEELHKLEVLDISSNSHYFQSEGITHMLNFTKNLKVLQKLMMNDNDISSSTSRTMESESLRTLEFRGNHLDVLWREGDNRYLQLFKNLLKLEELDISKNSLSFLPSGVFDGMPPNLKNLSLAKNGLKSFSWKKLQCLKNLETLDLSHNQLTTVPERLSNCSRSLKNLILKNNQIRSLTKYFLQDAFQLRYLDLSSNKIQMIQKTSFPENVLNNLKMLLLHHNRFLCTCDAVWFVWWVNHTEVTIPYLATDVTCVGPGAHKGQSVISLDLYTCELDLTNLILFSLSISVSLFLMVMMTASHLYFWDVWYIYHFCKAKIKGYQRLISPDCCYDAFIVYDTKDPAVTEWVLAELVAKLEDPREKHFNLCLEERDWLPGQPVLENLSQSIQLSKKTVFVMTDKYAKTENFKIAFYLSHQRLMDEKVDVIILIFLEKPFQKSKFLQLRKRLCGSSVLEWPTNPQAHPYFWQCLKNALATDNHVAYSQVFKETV
TEST PROTOCOL: Antagonist activity at TLR7 (unknown origin)
pIC50: −log10 of the molar value.
MEASUREMENT LABEL: pIC50

// field: pIC50; key: Nc1ncnc2c1nc(Br)n2C[C@@H](O)CO ; value = 3.57

P: NCc1ccc(C(=O)Nc2cccc(-c3nc4cc(OCCCN5CCCC5)ccc4o3)c2)cc1
Q: CCCCSc1nnc2n(N)c(=O)c3ccccc3n12
R: COc1cc2c(N3CCN(C(=O)OC(C)(C)C)CC3)nc(N3CCN(C)CC3)nc2cc1OCc1ccccc1
Order the records, beginning with the lowest pIC50 and ending with the highest. Provide the labels, sequenced as the question asks.
Q, P, R
(Q: 3.73, P: 4.18, R: 5.00)

====

ASSAY TARGET: Toll-like receptor 7 (Homo sapiens)
TEST PROTOCOL: Antagonist activity at TLR7 (unknown origin)
MEASUREMENT LABEL: IC50 (µM)

Reported IC50 of Nc1ncnc2c1ncn2CCO : 684

a: COc1cc2c(N3CCN(C(=O)c4ccccc4)CC3)nc(N(C)C)nc2cc1OC1CCCC1
b: CCN(CC)CCn1cnc2c(=O)oc3ccccc3c21
c: CCCNc1nc2c(c(=O)n(C)c(=O)n2C)n1CC(C)C
# desc sort on IC50 across 3 molecules Give the order by naming the labels one after another as requested.
c, b, a
(c: 660 µM, b: 37 µM, a: 10 µM)
